Reference source for all entries: patent US20050234066A1

Field: Ki. Provide a value for each of the compounds that follow.
- tgt: PPAR-γ (Homo sapiens, UniProt P37231)
- run.description: Scintillation Proximity Assay (SPA), displacement of 3H labeled darglitazone
- Assay type: binding
- assay.conditions: 3H darglitazone displacement, read-out: PPAR-gamma Ki
Numbers only here, please. The scale is nM.

Prompt line: I would be grateful if you could share the reported Ki for COC(C)(Cc1ccc(OCCc2nc(-c3cccc(F)c3)oc2C)nc1)C(=O)O (centres unmarked) .
Response line: 700

Prompt line: Same lookup for Cc1oc(-c2ccccc2)nc1CCOc1ccc(CC2(c3nnn[nH]3)CCCO2)cn1 (centres unmarked) , please.
Response line: 970

Prompt line: Same lookup for CCOC(Cc1ccc(OCCc2ccc(Oc3ccccc3)cc2)nc1)C(=O)O (centres unmarked) , please.
Response line: 1500

Prompt line: Same lookup for CCOC(Cc1ccc(OCCc2ccc(OCCOC)cc2)nc1)C(=O)O (centres unmarked) , please.
Response line: 6400

Prompt line: Same lookup for CCC(Oc1cccc(CNC(=O)OCc2ccc(OCc3ccccc3)cn2)c1)C(=O)O (centres unmarked) , please.
Response line: 7900

Prompt line: Same lookup for Cc1oc(-c2ccccc2)nc1CCOc1ccc(CC2(C(=O)O)CCCO2)cc1 (centres unmarked) , please.
Response line: 6

Prompt line: Same lookup for Cc1oc(-c2ccccc2)nc1C/C=C/c1ccc(OC2(C(=O)O)CCC2)cc1 , please.
Response line: 8000

Prompt line: Same lookup for Cc1oc(-c2ccccc2)nc1CCOc1ccc(OC2(C(=O)O)CCC2)cc1 , please.
Response line: 3700

Prompt line: Same lookup for Cc1oc(-c2ccc(C(F)(F)F)cc2)nc1CCOc1ccc(CC2(C(=O)O)CCC2)cc1 , please.
Response line: 50

Prompt line: Same lookup for Cc1oc(-c2ccccc2)nc1CCCOc1ccc(CC2(C(=O)O)CCCO2)nc1 (centres unmarked) , please.
Response line: 6000

Prompt line: Same lookup for CC(C)(C)OC(=O)Nc1ccc(CCOc2ccc(CC3(C(=O)O)CCCO3)cn2)cc1 (centres unmarked) , please.
Response line: 42

Prompt line: Same lookup for Cc1oc(-c2ccccc2)nc1CCCCc1ccc(CC2(C(=O)O)CCCO2)cn1 (centres unmarked) , please.
Response line: 820

Prompt line: Same lookup for Cc1oc(-c2ccccc2)nc1CCCc1ccc(OC2(C(=O)O)CCC2)cc1 , please.
Response line: 14000

Prompt line: Same lookup for Cc1oc(-c2cc(F)cc(F)c2)nc1CCOc1cccc(-c2cccc(OC(C)(C)C(=O)O)c2)c1 , please.
Response line: 170

Prompt line: Same lookup for COC(C)(Cc1ccc(OCCc2ccc(Oc3ccccc3)cc2)nc1)C(=O)O (centres unmarked) , please.
Response line: 9600

Prompt line: Same lookup for CN(CCOc1ccc(CC2(C(=O)O)CCCO2)cn1)c1nc2ccccc2o1 (centres unmarked) , please.
Response line: 1100

Prompt line: Same lookup for Cc1cccc(-c2nc(CCOc3ccc(CC4(C(=O)O)CCCO4)nc3)c(C)o2)c1 (centres unmarked) , please.
Response line: 43

Prompt line: Same lookup for CCOC(Cc1ccc(OCCc2ccc(OS(=O)(=O)CC)cc2)nc1)C(=O)O (centres unmarked) , please.
Response line: 450

Prompt line: Same lookup for Cc1sc(-c2ccccc2)nc1CCOc1ccc(CC2(C(=O)O)CCCO2)nc1 (centres unmarked) , please.
Response line: 180

Prompt line: Same lookup for Cc1oc(-c2ccccc2)nc1CCNC(=O)OCc1cccc(OC(C)(C)C(=O)O)c1 , please.
Response line: 990

Prompt line: Same lookup for Cc1oc(-c2ccc(C#N)cc2)nc1CCOc1ccc(CC2(C(=O)O)CCCO2)cc1 (centres unmarked) , please.
Response line: 62

Prompt line: Same lookup for COC(C)(Cc1ccc(OCCCc2nc(-c3ccccc3)oc2C)cn1)C(=O)O (centres unmarked) , please.
Response line: 1600

Prompt line: Same lookup for Cc1oc(-c2ccc(Cl)cc2)nc1CCOc1ccc(CC2(C(=O)O)CCC2)cc1 , please.
Response line: 26

Prompt line: Same lookup for Cc1oc(-c2ccccc2)nc1CCOc1ccc(CC2(C(=O)O)CCCCO2)nc1 (centres unmarked) , please.
Response line: 1100

Prompt line: Same lookup for COc1ccc(-c2ccc(CCOc3ccc(CC4(C(=O)O)CCC4)cc3)cc2)cn1 , please.
Response line: 2100

Prompt line: Same lookup for Cc1nn(-c2ccccc2)nc1CCOc1cccc(-c2cccc(OC(C)(C)C(=O)O)c2)c1 , please.
Response line: 150

Prompt line: Same lookup for Cc1cccc(-c2nc(CCOc3ccc(CC4(C(=O)O)CCC4)cc3)c(C)o2)c1 , please.
Response line: 35

Prompt line: Same lookup for COC(Cc1ccc(OCCc2ccc(Oc3ccccc3)cc2)nc1)C(=O)O (centres unmarked) , please.
Response line: 360

Prompt line: Same lookup for Cc1nn(-c2ccccc2)nc1COc1cccc(-c2cccc(OC3(C(=O)O)CCC3)c2)c1 , please.
Response line: 1700

---

- tgt: PPAR-γ (Homo sapiens, UniProt P37231)
- Sequence (P37231 1-505): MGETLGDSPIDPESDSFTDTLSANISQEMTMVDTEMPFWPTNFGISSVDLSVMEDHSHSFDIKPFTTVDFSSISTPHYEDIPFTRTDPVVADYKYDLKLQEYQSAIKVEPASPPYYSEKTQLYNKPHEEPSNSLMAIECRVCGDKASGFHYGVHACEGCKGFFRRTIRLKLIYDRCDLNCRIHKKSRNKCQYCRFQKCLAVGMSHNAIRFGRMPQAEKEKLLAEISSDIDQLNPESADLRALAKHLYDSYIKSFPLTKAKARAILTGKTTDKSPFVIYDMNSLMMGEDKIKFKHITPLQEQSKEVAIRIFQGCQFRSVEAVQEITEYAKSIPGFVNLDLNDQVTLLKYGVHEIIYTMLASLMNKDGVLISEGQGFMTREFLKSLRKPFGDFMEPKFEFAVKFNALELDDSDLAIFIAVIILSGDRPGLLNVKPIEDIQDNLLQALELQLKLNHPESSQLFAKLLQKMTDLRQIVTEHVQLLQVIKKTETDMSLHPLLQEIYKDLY
- run.description: Scintillation Proximity Assay (SPA), displacement of 3H labeled darglitazone
- Type: binding
- assay.conditions: 3H darglitazone displacement, read-out: PPAR-gamma Ki
Grouping by measured Ki is done with the following cut points: low class = under 50 nM, middle class = from 50 nM up to 800 nM, high class = 800 nM and over

Prompt line: Band for the recorded Ki of Cc1cccc(-c2nc(CCOc3ccc(CC4(C(=O)O)CCCO4)cc3)c(C)o2)c1 (stereo not shown) [Example C-89] ?
Response line: low class

Prompt line: Same lookup for Cc1oc(-c2ccc(C(F)(F)F)cc2)nc1CCOc1ccc(CC2(C(=O)O)CCCO2)cc1 (stereo not shown) [Example C-90] , please.
Response line: low class

Prompt line: Same lookup for CCOC(Cc1ccc(OCCc2nc(C)sc2C)cn1)C(=O)O [Example D-25] , please.
Response line: high class

Prompt line: Same lookup for COc1cccc(-c2nc(CCOc3ccc(CC4(C(=O)O)CCCO4)cc3)c(C)o2)c1 (stereo not shown) [Example C-85] , please.
Response line: low class

Prompt line: Same lookup for COC(C)(Cc1ccc(OCCc2nc(C3CCCCC3)oc2C)nc1)C(=O)O [Example D-32] , please.
Response line: high class

Prompt line: Same lookup for Cc1oc(-c2ccc(Cl)c(Cl)c2)nc1CCOc1ccc(CC2(C(=O)O)CCC2)cc1 [Example C-25] , please.
Response line: middle class

Prompt line: Same lookup for Cc1oc(-c2cccc(C(F)(F)F)c2)nc1CCOc1ccc(CC2(C(=O)O)CCC2)cc1 [Example C-30] , please.
Response line: low class

Prompt line: Same lookup for O=C(O)C1(Cc2ccc(OCCc3ccc(-c4ccc5c(c4)OCC5)cc3)cc2)CCC1 [Example C-12] , please.
Response line: high class

Prompt line: Same lookup for CCC(Oc1cccc(CNC(=O)OCc2nc(-c3ccccc3)oc2C)c1)C(=O)O (stereo not shown) [Example B-14] , please.
Response line: high class

Prompt line: Same lookup for Cc1oc(-c2ccccc2)nc1CCCOC(=O)NCc1ccc(OC(C)(C)C(=O)O)cc1 [Example B-07] , please.
Response line: middle class

Prompt line: Same lookup for CC(C)(Oc1cccc(COC(=O)NCCc2ccc(C(F)(F)F)cc2)c1)C(=O)O [Example B-04] , please.
Response line: high class

Prompt line: Same lookup for COC(C)(Cc1ccc(OCCc2nc(-c3cccc(C)c3)oc2C)nc1)C(=O)O [Example D-36] , please.
Response line: middle class

Prompt line: Same lookup for Cc1oc(-c2ccccc2)nc1CCOc1ccc(-c2cccc(OC3(C(=O)O)CCC3)c2)cc1 [Example A-10] , please.
Response line: high class

Prompt line: Same lookup for CCOc1ccc(-c2nc(CCOc3ccc(CC(C)(OC)C(=O)O)cn3)c(C)o2)cc1 [Example D-37] , please.
Response line: middle class

Prompt line: Same lookup for COc1ccc(-c2nc(CCOc3ccc(CC4(C(=O)O)CCCO4)nc3)c(C)o2)cc1 (stereo not shown) [Example C-53] , please.
Response line: middle class

Prompt line: Same lookup for COC(Cc1ccc(OCCc2nc(-c3cccc(C)c3)oc2C)nc1)C(=O)O [Example D-03] , please.
Response line: low class

Prompt line: Same lookup for Cc1oc(-c2cccc(N(C)C)c2)nc1CCOc1ccc(CC2(C(=O)O)CCCO2)cc1 (stereo not shown) [Example C-79] , please.
Response line: low class

Prompt line: Same lookup for Cc1oc(-c2cccc(Cl)c2)nc1CCOc1ccc(CC2(C(=O)O)CCC2)cc1 [Example C-31] , please.
Response line: low class

Prompt line: Same lookup for COc1cccc(-c2nc(CCOc3ccc(CC4(C(=O)O)CCC4)cc3)c(C)o2)c1 [Example C-29] , please.
Response line: low class

Prompt line: Same lookup for Cc1oc(-c2ccccc2)nc1CCOC(=O)NCc1ccc(OC(C)(C)C(=O)O)cc1F [Example B-09] , please.
Response line: high class

Prompt line: Same lookup for Cc1oc(-c2ccc(C(F)(F)F)c(F)c2)nc1CCOc1ccc(CC2(C(=O)O)CCCO2)cc1 (stereo not shown) [Example C-82] , please.
Response line: low class

Prompt line: Same lookup for COC(C)(Cc1ccc(OCCCc2nc(-c3ccccc3)oc2C)nc1)C(=O)O [Example D-27] , please.
Response line: high class

Prompt line: Same lookup for Cc1oc(-c2ccccc2)nc1COC(=O)NCc1cccc(OC(C)(C)C(=O)O)c1 [Example B-06] , please.
Response line: middle class

Prompt line: Same lookup for Cn1nc(-c2ccccc2)nc1COc1cccc(-c2cccc(OC3(C(=O)O)CCC3)c2)c1 [Example A-19] , please.
Response line: middle class

Prompt line: Same lookup for Cc1onc(-c2ccccc2)c1COc1cccc(-c2cccc(OC3(C(=O)O)CCC3)c2)c1 [Example A-20] , please.
Response line: middle class
